system_under_test: T1, human TL1A (human, UniProt O95150 72-251, limits assumed)
T1 construct: also called tumor necrosis factor-like cytokine 1A; TNFSF15
T1 sequence (looked up): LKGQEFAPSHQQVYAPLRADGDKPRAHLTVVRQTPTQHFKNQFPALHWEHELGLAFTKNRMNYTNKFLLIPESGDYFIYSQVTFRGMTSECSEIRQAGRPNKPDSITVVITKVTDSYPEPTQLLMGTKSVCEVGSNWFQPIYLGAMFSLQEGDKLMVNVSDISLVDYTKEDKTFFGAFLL
procedure_text: ELISA titration on plate-coated human TL1A, unpurified culture supernatant
assay_readout: pKd
# pKd = -log10(concentration in molar units)

Examples with their reported pKd follow.
INSERT INTO results (binder, result_value) VALUES
  ('A187 (antibody, IgG1, V domains shown) VH: QVQLVQSGAEVKKPGASVKVSCKASGFDIQDTYMHWVKQRPGQGLEWIGRIDPASGHTKYDPKFQVRVTITRDTSTSTAYLELSSLRSEDTAVYYCARSGGLPDVWGQGTTVTVSS VL: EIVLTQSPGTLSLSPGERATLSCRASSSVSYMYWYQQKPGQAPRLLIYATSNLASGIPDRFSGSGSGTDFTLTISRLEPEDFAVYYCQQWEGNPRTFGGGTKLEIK', 10.25),
  ('A167 (antibody, IgG1, V domains shown) VH: QVQLVQSGAEVKKPGASVKVSCKASGFDIQDTYMHWVKQRPGQGLEWIGRIDPASGHTKYDPKFQVRVTITRDTSTSTAYLELSSLRSEDTAVYYCARSGGLPDVWGQGTTVTVSS VL: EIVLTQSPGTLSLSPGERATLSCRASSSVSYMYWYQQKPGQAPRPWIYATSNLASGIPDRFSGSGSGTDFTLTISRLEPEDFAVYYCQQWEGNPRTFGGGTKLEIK', 10.38),
  ('A162 (antibody, IgG1, V domains shown) VH: QVQLVQSGAEVKKPGASVKVSCKASGFDIQDTYMHWVRQRPGQGLEWMGRIDPASGHTKYDPKFQVRVTITTDTSTSTVYMELSSLRSEDTAVYYCARSGGLPDVWGQGTTVTVSS VL: EIVLTQSPGTLSLSPGERATLSCRASSSVSYMYWYQQKPGQAPRLLIYATSNLASGIPDRFSGSGSGTDFTLTISRLEPEDFAVYYCQQWKGNPRTFGGGTKLEIK', 10.12);

Task: Find the recorded pKd belonging to A201 (antibody, IgG1, V domains shown) VH: EVQLVQSGAEVKKPGASVKVSCKASGFDIQDTYMHWVRQAPGQGLEWMGRIEPASGHIKYDPKFQGRATITTDTSTSTVYMELSSLRSEDTAVYYCARSGGLPDWWGQGTTVTVSS VL: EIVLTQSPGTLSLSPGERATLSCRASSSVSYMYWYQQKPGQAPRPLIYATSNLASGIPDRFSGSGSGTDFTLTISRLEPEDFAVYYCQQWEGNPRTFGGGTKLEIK and report it.
Output: 10.24

Task: Same question, A169 (antibody, IgG1, V domains shown) VH: QVQLVQSGAEVKKPGASVKVSCKASGFDIQDTYMHWVKQAPGQGLEWMGRIDPASGHIKYDPKFQGRVTMTRDTSTSTVYMELSSLRSEDTAVYYCARSGGLPDWWGQGTTVTVSS VL: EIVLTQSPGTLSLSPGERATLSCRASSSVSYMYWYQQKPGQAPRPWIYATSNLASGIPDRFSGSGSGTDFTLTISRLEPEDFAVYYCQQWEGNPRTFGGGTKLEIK this time
Output: 10.33

Task: Moving on to the next binder: A182 (antibody, IgG1, V domains shown) VH: QVQLVQSGAEVKKPGASVKVSCKASGFDIQDTYMHWVKQAPGQGLEWIGRIDPASGHTKYDPKFQVRATITTDTSTSTAYLELSSLRSEDTAVYYCARSGGLPDVWGQGTTVTVSS VL: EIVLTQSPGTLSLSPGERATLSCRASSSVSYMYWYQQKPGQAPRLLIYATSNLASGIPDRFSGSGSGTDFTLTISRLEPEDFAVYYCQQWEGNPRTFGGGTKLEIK
Output: 10.17
